Just for reference, PubChem BioAssay (NCI) is where these values come from.

System: NCI-H522 lung
Experiment: NCI tumour cell line growth inhibition, 48 h
# TGI annotations

>  <COMPOUND>
CCOC(=O)C(=O)CC(=O)C(Br)C(Br)c1ccc(Cl)cc1 (stereo unspecified)

>  <TGI>
45.7 µM

$$$$
>  <COMPOUND>
O=C(Nc1c[nH]c(=O)[nH]c1=O)Oc1ccccc1

>  <TGI>
> 100 µM

$$$$
>  <COMPOUND>
O=C1c2ccccc2C(=O)c2c1ccc1c3ccccc3n(-c3ccccc3)c21

>  <TGI>
32.4 µM

$$$$
>  <COMPOUND>
O=C(OC[C@H]1C[C@H]2C(=O)OCCC[C@H]2O1)c1ccccc1

>  <TGI>
> 100 µM

$$$$
>  <COMPOUND>
C=CCCCCCCCCCOC1C=CC(O)C(CO)O1 (stereo unspecified)

>  <TGI>
> 100 µM

$$$$
>  <COMPOUND>
CC1(C)OCC(/C=C\C(O)CC2(C)OCCO2)CO1 (stereo unspecified)

>  <TGI>
> 100 µM

$$$$
